- measured_on: FGFR1 (UniProt P11362)
- Sequence (P11362 whole entry, looked up): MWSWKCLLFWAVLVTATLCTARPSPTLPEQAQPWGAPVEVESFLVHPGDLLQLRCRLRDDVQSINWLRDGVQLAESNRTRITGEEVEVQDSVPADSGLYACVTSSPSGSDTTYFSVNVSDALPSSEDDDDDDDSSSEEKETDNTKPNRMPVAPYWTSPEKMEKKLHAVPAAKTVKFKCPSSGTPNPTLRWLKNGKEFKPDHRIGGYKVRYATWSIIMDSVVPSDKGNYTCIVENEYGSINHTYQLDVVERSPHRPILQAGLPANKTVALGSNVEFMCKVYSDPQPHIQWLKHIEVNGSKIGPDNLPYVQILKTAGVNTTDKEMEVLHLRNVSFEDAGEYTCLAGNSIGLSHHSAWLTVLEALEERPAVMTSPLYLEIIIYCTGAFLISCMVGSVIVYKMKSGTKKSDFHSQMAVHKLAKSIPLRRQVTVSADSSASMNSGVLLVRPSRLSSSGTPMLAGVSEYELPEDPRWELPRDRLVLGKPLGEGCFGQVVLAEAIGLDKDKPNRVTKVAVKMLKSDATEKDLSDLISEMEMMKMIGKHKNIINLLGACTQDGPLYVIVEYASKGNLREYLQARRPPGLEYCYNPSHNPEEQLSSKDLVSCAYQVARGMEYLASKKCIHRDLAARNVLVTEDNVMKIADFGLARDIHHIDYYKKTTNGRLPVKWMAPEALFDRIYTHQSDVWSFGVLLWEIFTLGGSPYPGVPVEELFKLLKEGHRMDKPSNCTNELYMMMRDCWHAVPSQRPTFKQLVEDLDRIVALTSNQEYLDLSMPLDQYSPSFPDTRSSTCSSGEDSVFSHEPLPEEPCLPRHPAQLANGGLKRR
- method: phosphorylation enrichment, bacterial display (enrichment ratio); higher = better substrate or ligand; peptides without Tyr show the background;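 note: 11-residue human phosphosite peptides and single-mutation variants displayed on the E. coli surface, counted by deep sequencing, each peptide's frequency after selection divided by its frequency in the unselected input library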;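 note: frequency after pTyr selection over input frequency; kinase dosed for 20-30% of maximal phosphorylation in three min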
phosphorylation enrichment vs 0.6: at or above is Satisfied, below is Not satisfied.

Please review the entries below; each comes with its answer.
SREALYNETDP [CACNA1A_Y794_M797T]; Not satisfied
QKKPRYEIRWK [PDGFRB_Y562]; Satisfied
GKSDPYHATSG [GJA1_Y247]; Not satisfied
FSIDHYLGKEM [G6PD_Y202_R198S_YF]; Not satisfied
THEVRYVSAGQ [SLCO4A1_Y77]; Not satisfied

Can KACNPYKPPGP be said to have phosphorylation enrichment at or above 0.6?
Not satisfied

Test whether the sequence PRLLRYLQLDF [ASB10_Y457] records phosphorylation enrichment of 0.6 or higher.
Satisfied

Hi, just wondering whether TQNGVYSAANY [DDX5_Y535] shows phosphorylation enrichment of 0.6 or higher.
Not satisfied

----------
Recorded phosphorylation enrichment, one value per entry.
- measured_on: Jak2 (UniProt O60674)
- Sequence (O60674 whole entry, looked up): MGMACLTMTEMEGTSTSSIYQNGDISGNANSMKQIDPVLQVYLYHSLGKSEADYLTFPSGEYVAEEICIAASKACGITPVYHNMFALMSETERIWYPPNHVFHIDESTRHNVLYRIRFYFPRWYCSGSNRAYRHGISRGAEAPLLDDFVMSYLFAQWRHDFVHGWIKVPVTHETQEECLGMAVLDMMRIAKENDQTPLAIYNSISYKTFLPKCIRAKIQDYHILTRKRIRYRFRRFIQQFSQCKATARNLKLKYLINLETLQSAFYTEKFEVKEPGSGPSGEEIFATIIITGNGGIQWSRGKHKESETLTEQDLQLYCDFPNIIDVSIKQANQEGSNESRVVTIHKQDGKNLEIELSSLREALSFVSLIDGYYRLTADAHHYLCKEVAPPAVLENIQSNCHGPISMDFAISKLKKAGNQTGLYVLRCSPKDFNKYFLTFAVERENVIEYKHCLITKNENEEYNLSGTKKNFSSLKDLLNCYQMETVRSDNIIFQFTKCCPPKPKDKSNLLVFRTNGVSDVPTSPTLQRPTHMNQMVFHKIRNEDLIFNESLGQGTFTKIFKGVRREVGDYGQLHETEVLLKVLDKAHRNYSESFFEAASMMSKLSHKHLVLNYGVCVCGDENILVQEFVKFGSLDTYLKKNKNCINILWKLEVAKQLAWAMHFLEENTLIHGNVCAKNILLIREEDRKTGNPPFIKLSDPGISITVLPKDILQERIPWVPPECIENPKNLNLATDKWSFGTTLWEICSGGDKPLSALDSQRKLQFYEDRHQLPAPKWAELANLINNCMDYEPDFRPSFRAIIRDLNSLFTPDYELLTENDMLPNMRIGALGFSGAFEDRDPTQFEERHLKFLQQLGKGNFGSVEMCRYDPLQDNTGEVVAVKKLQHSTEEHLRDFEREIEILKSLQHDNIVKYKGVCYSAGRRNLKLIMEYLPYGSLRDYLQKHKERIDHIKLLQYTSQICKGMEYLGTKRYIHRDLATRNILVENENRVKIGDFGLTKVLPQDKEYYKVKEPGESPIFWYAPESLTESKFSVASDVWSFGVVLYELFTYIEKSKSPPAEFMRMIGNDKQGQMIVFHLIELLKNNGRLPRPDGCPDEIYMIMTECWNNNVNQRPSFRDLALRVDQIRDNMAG
- method: phosphorylation enrichment, bacterial display (enrichment ratio); higher = better substrate or ligand; peptides without Tyr show the background

TGEKPYECVQC [ZNF24_Y335]; 0.664
HYGNNYTDVLQ [MACC1_Y803_R804T]; 1.35
NYYDTYIKTCL [IQGAP2_Y1445]; 1.5
RRFSSYSQMEN [PKP1_Y120]; 0.657
GLAKEYTDPET [CSNK1G2_Y195_I196T]; 1.9
CETMEYLESKQ [BTK_Y511_A508T]; 1.43
SYVVRYNQPRV [GRIN2D_Y736_M733V]; 0.725
CTHDLYMFMRE [FGFR3_Y724_I726F]; 1.34

Return phosphorylation enrichment for the following sequence: MKALGYFAVVT [OPA1_Y498]
1.62

Output phosphorylation enrichment of SHTPSYCDESL [RITA1_Y109]
0.62

Give reported phosphorylation enrichment value for KSDVMYTDWKK [ORM1_Y175_V174M]
0.764

Look up and state reported phosphorylation enrichment for NFRTTYVNANE [KCNH2_Y475]
1.29

Respond only with phosphorylation enrichment recorded for DDLTDYLMKIL [ACTA1_Y190_R185D]
1.15

Hello, please tell me recorded phosphorylation enrichment for this one: SSPVPYLSPET [TJP1_Y931]
0.719

----------
- System: c-Abl (mouse)
- method: phosphorylation enrichment, bacterial display (enrichment ratio); higher = better substrate or ligand; peptides without Tyr show the background
measured_parameter: phosphorylation enrichment

See these solved cases before continuing.
HQNGMYGLHQD [SGSH_Y89]; 0.726
LKRCQYVTEKV [ALDOA_Y204]; 1.24

Output phosphorylation enrichment of ADTETYLLEKS [MYH7_Y266_I263T]
0.709

Quickly give me recorded phosphorylation enrichment for YVGGFYGGCNE [CTSC_Y352]
0.869

State, in one line, measured phosphorylation enrichment of REDIFYTSKLW [AKR1C2_Y81]
0.607

// Input: GGSTFYIDTNA [ACTL6A_Y69_P66S_YF] . Output its phosphorylation enrichment only.
0.734

Read the entry KPVEEYANCHL [TF_Y593] and write its reported phosphorylation enrichment.
0.755

Please look at this sequence and report its phosphorylation enrichment: TCFDKYTGSTY [FN1_Y101_N104S]
0.579

Fill in phosphorylation enrichment for record YGAHNHHPLPV [OAT_Y55_Y55H]
0.671

Item IEKLPYIDKWF [CPS1_Y872_T871P] : provide phosphorylation enrichment
0.574

----------
- System: c-Src
- method: phosphorylation enrichment, bacterial display (enrichment ratio); higher = better substrate or ligand; peptides without Tyr show the background
measured_parameter: phosphorylation enrichment

# count of solved cases: 4
FTFDPYSEEEP [IL2RB_Y387_D391E_YF]; 0.907
TTKAKYKTPTY [PLD2_Y573]; 0.406
GDFSRYDEGSG [RECQL5_Y484]; 0.534
KSDVMYTDWKK [ORM1_Y175_V174M]; 0.616

Give phosphorylation enrichment for the following sequence: NTGDYYDLYGG [PTPN11_Y63]
5

Item IFCIQYNIRAF [MYH4_Y820] : provide phosphorylation enrichment
0.599

Give me measured phosphorylation enrichment, please, for this sequence: HGEAFYSEVKP [PAK5_Y182_YF]
2.27

----------
Listed here: items and their measured phosphorylation enrichment.
- Test system: Fer (mouse)
- method: phosphorylation enrichment, bacterial display (enrichment ratio); higher = better substrate or ligand; peptides without Tyr show the background
Lab note: write the figure by itself, no unit.

Some sequences with recorded phosphorylation enrichment:
TTGGFYSFGGG [KRT24_Y120_A115T_YF]; 1.55
LEDDVYRKTCT [XPA_Y257_M256V]; 1.09
IVRSRYEDLED [VHL_Y185_L184R]; 0.619
KGKLIYLLGDS [NXPE1_Y350]; 0.471
RFLERDIYNRE [HLA-DPB1_Y57_Y57D]; 1.85

Answer with reported phosphorylation enrichment of IDDNQYAFLKA [HNF4A_Y286_E285Q_YF]
0.852

Tell me phosphorylation enrichment reported for GVASDYKCVDP [VPS13B_Y1991_I1994V]
0.548

----------
- measured_on: Jak2 (UniProt O60674)
- method: phosphorylation enrichment, bacterial display (enrichment ratio); higher = better substrate or ligand; peptides without Tyr show the background
measured_parameter: phosphorylation enrichment
Write the value as a bare number.

// solved cases for phosphorylation enrichment follow
SEHLTYLEFKS [RASGRP1_Y215]; 1.33
ELTSKYRGGGG [HBA1_Y141_V136E]; 0.678
LSDVIYVILRK [PMP22_Y153_G150D]; 1.23
GVASDYKCVDP [VPS13B_Y1991_I1994V]; 0.964
FSQNIYIQNRN [PKP2_Y631_YF]; 0.517
KGKLIYLLGDS [NXPE1_Y350]; 0.639

Item QWRTKYETDTI [MYH7_Y1375_A1379T] : provide phosphorylation enrichment
1.56

Answer with the recorded phosphorylation enrichment for the sequence listed here: EVASVYESYQP [MAVS_Y92_Q93E]
0.849

State its phosphorylation enrichment for this sequence: FDEFRYRSFIK [CFTR_Y517_V520F_YF]
0.497

Please list phosphorylation enrichment recorded for the sequence VSVVDYVEPSP [TXNRD2_Y70_A66S]
0.725

----------
Overview of recorded phosphorylation enrichment for various sequences
- measured_on: EPHB2 (UniProt P29323)
- Sequence (P29323 whole entry, looked up): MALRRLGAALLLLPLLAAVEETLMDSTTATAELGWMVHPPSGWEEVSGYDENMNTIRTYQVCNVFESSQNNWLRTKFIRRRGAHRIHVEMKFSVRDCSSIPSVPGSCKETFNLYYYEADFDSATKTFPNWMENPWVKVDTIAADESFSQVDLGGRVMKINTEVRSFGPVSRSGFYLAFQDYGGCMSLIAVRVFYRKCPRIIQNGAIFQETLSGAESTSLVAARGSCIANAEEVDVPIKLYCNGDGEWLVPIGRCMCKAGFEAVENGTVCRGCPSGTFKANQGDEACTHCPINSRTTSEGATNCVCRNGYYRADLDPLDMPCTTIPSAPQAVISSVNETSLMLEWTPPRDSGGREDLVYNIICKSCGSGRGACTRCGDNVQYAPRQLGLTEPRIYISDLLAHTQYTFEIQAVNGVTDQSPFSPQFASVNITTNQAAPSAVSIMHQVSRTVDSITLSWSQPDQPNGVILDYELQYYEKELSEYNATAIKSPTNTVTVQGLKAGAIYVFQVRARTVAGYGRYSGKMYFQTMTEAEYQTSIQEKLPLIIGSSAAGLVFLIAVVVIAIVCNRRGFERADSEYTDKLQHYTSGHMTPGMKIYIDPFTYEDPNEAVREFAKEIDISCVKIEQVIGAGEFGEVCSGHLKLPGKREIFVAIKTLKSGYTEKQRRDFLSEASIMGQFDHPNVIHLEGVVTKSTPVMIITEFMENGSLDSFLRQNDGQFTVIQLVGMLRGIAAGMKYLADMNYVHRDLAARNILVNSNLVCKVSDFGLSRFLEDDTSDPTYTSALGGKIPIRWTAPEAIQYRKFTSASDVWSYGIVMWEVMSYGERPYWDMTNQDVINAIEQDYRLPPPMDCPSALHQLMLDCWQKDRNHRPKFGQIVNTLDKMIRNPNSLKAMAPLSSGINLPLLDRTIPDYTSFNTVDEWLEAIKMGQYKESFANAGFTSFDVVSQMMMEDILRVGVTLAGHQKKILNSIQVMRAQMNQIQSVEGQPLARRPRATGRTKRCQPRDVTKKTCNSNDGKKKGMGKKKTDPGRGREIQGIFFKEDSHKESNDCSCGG
- method: phosphorylation enrichment, bacterial display (enrichment ratio); higher = better substrate or ligand; peptides without Tyr show the background
# output: bare number, no unit

Give reported phosphorylation enrichment for ALAHKHHGGGG [HBB_Y146_Y146H] (EPHB2 (UniProt P29323))
0.391

----------
- measured_on: FGFR1 (UniProt P11362)
- method: phosphorylation enrichment, bacterial display (enrichment ratio); higher = better substrate or ligand; peptides without Tyr show the background
Tick Met if phosphorylation enrichment is 0.6 or greater. Tick Not met if phosphorylation enrichment is less than 0.6.

HNELFYEEAEH [VANGL1_Y345_YF]; Met
TRDVNYGWTIR [MT-CYB_Y75_I78T]; Not met
KFDLMYAKWAF [TUBA3E_Y399]; Met
VFPIDYFFPPQ [AR_Y552_L548F_YF]; Met
IEKLPYIDKWF [CPS1_Y872_T871P]; Not met

Does IYRASYYRRGD [LTK_Y676] have a reported phosphorylation enrichment of at least 0.6?
Not met

API: above_or_equal(metric=phosphorylation enrichment, cutoff=0.6) for item QFLMKYVWSAS [ABCD1_Y337]
Not met

----------
- measured_on: MERTK (UniProt Q12866)
- Sequence (Q12866 whole entry, looked up): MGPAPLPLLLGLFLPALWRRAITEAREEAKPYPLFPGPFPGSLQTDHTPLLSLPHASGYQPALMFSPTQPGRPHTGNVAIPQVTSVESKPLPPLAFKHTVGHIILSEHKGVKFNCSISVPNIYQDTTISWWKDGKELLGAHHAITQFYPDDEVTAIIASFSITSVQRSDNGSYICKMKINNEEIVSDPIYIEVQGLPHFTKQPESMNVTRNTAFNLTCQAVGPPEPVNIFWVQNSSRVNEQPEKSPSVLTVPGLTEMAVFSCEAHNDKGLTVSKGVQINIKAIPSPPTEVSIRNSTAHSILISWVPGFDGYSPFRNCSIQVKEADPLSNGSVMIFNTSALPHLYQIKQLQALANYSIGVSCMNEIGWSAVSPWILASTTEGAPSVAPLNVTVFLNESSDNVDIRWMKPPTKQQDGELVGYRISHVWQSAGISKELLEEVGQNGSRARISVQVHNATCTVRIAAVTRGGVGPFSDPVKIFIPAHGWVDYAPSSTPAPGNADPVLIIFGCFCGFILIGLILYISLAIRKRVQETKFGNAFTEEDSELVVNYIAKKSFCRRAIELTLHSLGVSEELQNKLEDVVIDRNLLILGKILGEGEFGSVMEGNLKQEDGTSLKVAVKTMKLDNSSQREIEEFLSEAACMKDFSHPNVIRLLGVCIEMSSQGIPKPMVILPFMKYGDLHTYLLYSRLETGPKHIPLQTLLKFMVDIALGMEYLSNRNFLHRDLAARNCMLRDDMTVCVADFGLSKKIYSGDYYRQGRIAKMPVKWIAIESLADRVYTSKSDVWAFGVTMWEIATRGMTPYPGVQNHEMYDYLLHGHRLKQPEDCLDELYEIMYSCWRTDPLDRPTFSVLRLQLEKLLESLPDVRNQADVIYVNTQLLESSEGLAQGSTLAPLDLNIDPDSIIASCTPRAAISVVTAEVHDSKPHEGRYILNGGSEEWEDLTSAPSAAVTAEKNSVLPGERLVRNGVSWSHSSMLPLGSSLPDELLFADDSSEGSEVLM
- method: phosphorylation enrichment, bacterial display (enrichment ratio); higher = better substrate or ligand; peptides without Tyr show the background
Tag: 1 if measured phosphorylation enrichment is not below 0.4, -1 if it is.

Below are worked cases with known answers.
EKQARYEIVVE [CDH5_Y223]; 1
YEREQYADRAR [RBM4_Y355]; -1
RRIHSYRGHLC [VHL_Y112_W117C]; 1
LMVFEYMRHGN [NTRK1_Y591_D596N]; 1
PEVSGYCHFAD [TG_Y234_C237Y_YF]; -1
CTHDLYMFMRE [FGFR3_Y724_I726F]; 1
NAPNSYGRRPI [CDKN2A_Y44]; 1
ALECLYRREKR [TEKT5_Y195_H196R]; 1
WEQELYSQLVF [WAS_Y102_YF]; 1
LIQRNYKLAAQ [ALPK2_Y1975]; 1

Item NGRQCYSCKGN [PLAUR_Y217] with phosphorylation enrichment of 0.4 or above?
-1

Has SREALYNETDP [CACNA1A_Y794_M797T] a recorded phosphorylation enrichment greater than or equal to 0.4?
1

Is reported phosphorylation enrichment greater than or equal to 0.4 here: APQFTYAQGGQ [FLNA_Y1763_YF]
-1
